Values from ChEMBL document CHEMBL2311394

- System: Escherichia coli
- assay-method-text: Binding affinity to Escherichia coli AspAT by Michaelis-Menten model relative to natural substrate alpha-ketoglutarate
Respond with 1.0 for kcat values of 5% and above, 0.0 for values below.

Evaluate O=C(CCC(CC(=O)C(=O)O)C(=O)O)Nc1ccccc1 (racemic) : kcat at minimum 5%? 0.0

Ok, now CN(O)C(=O)CCC(CC(=O)C(=O)O)C(=O)O (racemic) 1.0

Now consider CCCC(CC(=O)C(=O)O)C(=O)O (stereo unspecified) and answer again. 1.0

Request: O=C(O)C(=O)CC(CCC(=O)N1CCCCC1)C(=O)O (racemic) 1.0

Next up: CC(C)(C)ONC(=O)CCC(CC(=O)C(=O)O)C(=O)O (racemic) 0.0

Do the same for CN(C)C(=O)CCC(CC(=O)C(=O)O)C(=O)O (racemic) please 1.0

---

For each record, write down the corresponding Ki.
- target-entity: Glutamate NMDA receptor

Ki for NCCC[C@H](C[C@H](N)C(=O)O)C(=O)O ? > 100 µM

Also need N[C@@H](C[C@@H](CCC(=O)NO)C(=O)O)C(=O)O , thanks. > 100 µM

Proceed to N[C@@H](C[C@@H](CCNC(=O)OCc1ccccc1)C(=O)O)C(=O)O 82 µM

Subsequent entry: CC(C)(C)ONC(=O)CC[C@H](C[C@H](N)C(=O)O)C(=O)O > 100 µM
